A collection of molecules and their measured AC50
TEST SYSTEM: Sodium-dependent serotonin transporter (Homo sapiens); note: assay procedure not described here
Sequence (P31645 whole entry): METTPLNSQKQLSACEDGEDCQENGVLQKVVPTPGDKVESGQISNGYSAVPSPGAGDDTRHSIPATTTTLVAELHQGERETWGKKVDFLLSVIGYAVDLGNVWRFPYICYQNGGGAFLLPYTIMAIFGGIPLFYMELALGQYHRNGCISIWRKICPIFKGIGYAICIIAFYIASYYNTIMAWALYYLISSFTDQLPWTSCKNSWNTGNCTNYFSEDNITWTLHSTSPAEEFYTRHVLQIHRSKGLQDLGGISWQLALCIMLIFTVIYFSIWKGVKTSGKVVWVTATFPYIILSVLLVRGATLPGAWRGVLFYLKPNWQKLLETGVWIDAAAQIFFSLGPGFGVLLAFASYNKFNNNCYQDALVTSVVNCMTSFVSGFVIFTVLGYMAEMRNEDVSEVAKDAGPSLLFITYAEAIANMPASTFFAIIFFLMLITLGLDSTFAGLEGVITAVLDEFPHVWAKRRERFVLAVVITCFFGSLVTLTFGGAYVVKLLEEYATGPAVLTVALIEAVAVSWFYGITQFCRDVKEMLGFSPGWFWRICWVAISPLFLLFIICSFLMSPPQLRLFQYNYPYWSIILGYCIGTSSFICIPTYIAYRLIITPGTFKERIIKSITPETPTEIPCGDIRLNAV

Worked examples, 5 molecules total:
{"MOLECULE": "CC[N+](CC)(CCNC(=O)C(=O)NCC[N+](CC)(CC)Cc1ccccc1Cl)Cc1ccccc1Cl [AMBENONIUM]", "TEST SYSTEM": "Sodium-dependent serotonin transporter (Homo sapiens)", "MEASURE": "AC50", "ASSAY VALUE": "6.1 µM"}
{"MOLECULE": "CCOc1ccccc1OCCN[C@H](C)Cc1ccc(OC)c(S(N)(=O)=O)c1 [TAMSULOSIN]", "TEST SYSTEM": "Sodium-dependent serotonin transporter (Homo sapiens)", "MEASURE": "AC50", "ASSAY VALUE": "> 30 µM"}
{"MOLECULE": "COc1ccc(C(Cl)=C(c2ccc(OC)cc2)c2ccc(OC)cc2)cc1 [CHLOROTRIANISENE]", "TEST SYSTEM": "Sodium-dependent serotonin transporter (Homo sapiens)", "MEASURE": "AC50", "ASSAY VALUE": "> 30 µM"}
{"MOLECULE": "OCC(O)COc1ccc(Cl)cc1 (stereo unspecified)", "TEST SYSTEM": "Sodium-dependent serotonin transporter (Homo sapiens)", "MEASURE": "AC50", "ASSAY VALUE": "> 10 µM"}
{"MOLECULE": "O=C(C[S+]([O-])Cc1ccco1)NC/C=C\\COc1cc(CN2CCCCC2)ccn1 (stereo unspecified) [LAFUTIDINE]", "TEST SYSTEM": "Sodium-dependent serotonin transporter (Homo sapiens)", "MEASURE": "AC50", "ASSAY VALUE": "> 10 µM"}

Give measured AC50 for COc1ccc(-c2cc(=S)ss2)cc1 [ANETHOLTRITHION] (Sodium-dependent serotonin transporter (Homo sapiens)).
> 10 µM

Give measured AC50 for CCOC(=O)Nc1ccc(NCc2ccc(F)cc2)nc1N [FLUPIRTINE] (Sodium-dependent serotonin transporter (Homo sapiens)).
> 30 µM

Give measured AC50 for O=C(O)c1ccc2nc(-c3cc(Cl)cc(Cl)c3)oc2c1 (Sodium-dependent serotonin transporter (Homo sapiens)).
> 30 µM

Give measured AC50 for COC(=O)c1ccc2c(c1)NC(=O)/C2=C(\Nc1ccc(N(C)C(=O)CN2CCN(C)CC2)cc1)c1ccccc1 [NINTEDANIB] (Sodium-dependent serotonin transporter (Homo sapiens)).
> 30 µM

Give measured AC50 for CC(C)(N)Cc1ccccc1 [PHENTERMINE] (Sodium-dependent serotonin transporter (Homo sapiens)).
> 30 µM

Give measured AC50 for CN(C)CCc1c[nH]c2ccc(CS(=O)(=O)N3CCCC3)cc12 [ALMOTRIPTAN] (Sodium-dependent serotonin transporter (Homo sapiens)).
> 30 µM

Give measured AC50 for COc1cc(N)cn[n+]1-c1ccccc1 [AMEZINIUM METILSULFATE] (Sodium-dependent serotonin transporter (Homo sapiens)).
17 µM

Give measured AC50 for CN1C(=O)CN=C(c2ccccc2F)c2cc([N+](=O)[O-])ccc21 [FLUNITRAZEPAM] (Sodium-dependent serotonin transporter (Homo sapiens)).
> 10 µM

Give measured AC50 for C=CC1=C(C(=O)O)N2C(=O)[C@@H](NC(=O)/C(=N\O)c3csc(N)n3)[C@H]2SC1 (Sodium-dependent serotonin transporter (Homo sapiens)).
> 30 µM

Give measured AC50 for Oc1cc(Cl)ccc1Oc1ccc(Cl)cc1Cl [TRICLOSAN] (Sodium-dependent serotonin transporter (Homo sapiens)).
> 30 µM

Give measured AC50 for O=C(O)[C@H]1/C(=C/CO)O[C@@H]2CC(=O)N21 [CLAVULANIC ACID] (Sodium-dependent serotonin transporter (Homo sapiens)).
> 30 µM

Give measured AC50 for CCN(CC)CCn1c(=O)c(Cc2ccc(OC)cc2)nc2ccccc21 [CAROVERINE] (Sodium-dependent serotonin transporter (Homo sapiens)).
> 30 µM

Give measured AC50 for COc1cc2c(cc1OC)C1CC(=O)C(CC(C)C)CN1CC2 (stereo unspecified) [TETRABENAZINE] (Sodium-dependent serotonin transporter (Homo sapiens)).
> 30 µM

Give measured AC50 for CCCCCCCC(=O)CC[C@@H]1[C@@H](C/C=C\CCCC(=O)O)[C@@H](O)C[C@H]1O [UNOPROSTONE] (Sodium-dependent serotonin transporter (Homo sapiens)).
> 30 µM

Give measured AC50 for NS(=O)(=O)c1ccc(N2CCCCS2(=O)=O)cc1 (Sodium-dependent serotonin transporter (Homo sapiens)).
> 30 µM

Give measured AC50 for O=C1[C@@H]2[C@H]3CC[C@H](C3)[C@@H]2C(=O)N1C[C@@H]1CCCC[C@H]1CN1CCN(c2nsc3ccccc23)CC1 [LURASIDONE] (Sodium-dependent serotonin transporter (Homo sapiens)).
> 30 µM

Give measured AC50 for CC1NCCOC1c1ccccc1 (stereo unspecified) [PHENMETRAZINE] (Sodium-dependent serotonin transporter (Homo sapiens)).
> 30 µM

Give measured AC50 for N[C@@H](Cc1cc(I)c(Oc2cc(I)c(O)c(I)c2)c(I)c1)C(=O)O [LEVOTHYROXINE] (Sodium-dependent serotonin transporter (Homo sapiens)).
> 30 µM

Give measured AC50 for CN1CCCN=C1/C=C/c1cccc(O)c1 [OXANTEL] (Sodium-dependent serotonin transporter (Homo sapiens)).
> 30 µM
